system-under-test: Left-right determination factor 2 (Homo sapiens) (UniProt O00292)
Sequence (O00292 whole entry, looked up): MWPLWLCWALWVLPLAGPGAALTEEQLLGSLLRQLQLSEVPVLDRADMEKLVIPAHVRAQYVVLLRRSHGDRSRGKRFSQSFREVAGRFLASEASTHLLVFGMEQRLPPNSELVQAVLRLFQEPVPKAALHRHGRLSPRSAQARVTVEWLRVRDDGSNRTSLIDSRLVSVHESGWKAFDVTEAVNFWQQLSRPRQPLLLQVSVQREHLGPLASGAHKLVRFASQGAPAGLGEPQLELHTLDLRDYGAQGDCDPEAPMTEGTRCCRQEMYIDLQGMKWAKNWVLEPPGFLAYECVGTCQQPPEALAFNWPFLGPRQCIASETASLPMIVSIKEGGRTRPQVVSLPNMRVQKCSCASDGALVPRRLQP
assay-procedure: small molecules binding LEFTY2 protein – biochemical, small-molecule microarray, 635 nm fluorescence scan, primary screen (AID 1110)
assay-conditions: higher = more signal
Listed below: composite z-score values for each entry.
Output: the number by itself.

Worked examples follow.
{"molecule": "C=C(C)[C@@H]1CC=C(C(O)C2C=CC3C(=O)N(C)C(=O)C3N2Nc2ccc([N+](=O)[O-])cc2[N+](=O)[O-])CC1 (stereo partly specified)", "composite z-score": 0.265}
{"molecule": "CCC(CC)C(O)C1C=CC2C(=O)N(c3ccccc3)C(=O)C2N1Nc1ccccc1F (stereo unspecified)", "composite z-score": -0.527}
{"molecule": "CO[C@H]1O[C@H](CO)[C@@H](OC(=O)Nc2ccc3c(c2)OCO3)[C@H](OC(=O)Nc2ccccc2-c2ccccc2)[C@H]1OC(=O)Nc1ccccc1-c1ccccc1", "composite z-score": -0.0829}

Exercise: Report value only: composite z-score, Left-right determination factor 2 (Homo sapiens) (UniProt O00292), CC(C)C(O)C1C=CC2C(=O)NC(=O)C2N1Nc1ccccn1 (stereo unspecified)
Solution: 0.108

Exercise: Report value only: composite z-score, Left-right determination factor 2 (Homo sapiens) (UniProt O00292), C[C@@H]1NC(=O)C([C@@H](C)OCc2ccccc2)NC(=O)[C@@]23C(=O)N[C@@H](Cc4ccccc4)C2[C@H](C)[C@@]2(C)O[C@H]2C3/C=C/C/C=C\CNC1=O (stereo partly specified)
Solution: -0.238

Exercise: Report value only: composite z-score, Left-right determination factor 2 (Homo sapiens) (UniProt O00292), COCCCNC(=O)[C@@]1(CCC(=O)OC(C)(C)C)COC(c2ccc(OCCCO)cc2)=N1
Solution: -0.148

Exercise: Report value only: composite z-score, Left-right determination factor 2 (Homo sapiens) (UniProt O00292), NC(=O)NCC#Cc1ccc2c(c1)[C@]1(C(=O)N2)[C@H](c2ccc(OCCO)cc2)N2[C@H](c3ccccc3)[C@H](c3ccccc3)OC(=O)[C@H]2[C@@H]1C(=O)O
Solution: -0.644

Exercise: Report value only: composite z-score, Left-right determination factor 2 (Homo sapiens) (UniProt O00292), C=CCC(OC(C)=O)[C@@H]1[C@@H](N(Cc2cc3ccccc3o2)C(=O)Cc2ccc(OC)cc2)c2cc(OCCCO)ccc2N1C(=O)c1ccc2ccccc2n1 (stereo partly specified)
Solution: 0.0809

Exercise: Report value only: composite z-score, Left-right determination factor 2 (Homo sapiens) (UniProt O00292), O=C1O[C@@H](c2ccccc2)[C@@H](c2ccccc2)N2[C@@H](c3ccc(OCCO)cc3)[C@]3(C(=O)Nc4ccc(C#CCCO)cc43)[C@@H](C(=O)O)[C@H]12
Solution: 0.687

Exercise: Report value only: composite z-score, Left-right determination factor 2 (Homo sapiens) (UniProt O00292), COCCn1c(C(=O)N(C)C)cc2c1C[C@H]1CN(C(=O)c3ccccc3)[C@@](Cc3ccc(OC)cc3)(C(=O)OC)[C@@H]21
Solution: 0.0756

Exercise: Report value only: composite z-score, Left-right determination factor 2 (Homo sapiens) (UniProt O00292), COc1ccc(C(O)C2C=CC3C(=O)NC(=O)C3N2Nc2ccc(Cl)cc2Cl)c2ccccc12 (stereo unspecified)
Solution: -0.65
